The measurements presented in this section are drawn from ChEMBL document CHEMBL3244401.

Tested on: Cavia porcellus
Assay: Bronchodilatory activity in iv dosed Hartley guinea pig assessed as inhibition of acetylcholine-induced spasm administered 3 to 4 times at 15 mins interval starting 2 mins post challenge
Type: functional
readoutKind: ED50 (mg/kg)
Return type: number; implicit unit mg/kg.

Example compounds with recorded ED50:
{"columns": ["compound", "readoutKind", "outputUnit", "numericResult"],
 "data": [
  ["CCCCC(CC)[C@H](O)/C=C/C1CCC(=O)[C@@H]1CCCCCCC(=O)OCC (mixture of isomers)", "ED50", "mg/kg", 0.145],
  ["CCCCC(C)[C@@H](O)/C=C/C1CCC(=O)[C@@H]1C/C=C\\CCCC(=O)O (mixture of isomers)", "ED50", "mg/kg", 0.0875],
  ["CCCCC(C)(C)[C@@H](O)/C=C/C1CCC(=O)[C@@H]1CCCCOCC(=O)OCC (mixture of isomers)", "ED50", "mg/kg", 0.349]
]}

query: Would you mind telling me what ED50 value was observed for CCCCC(CC)[C@H](O)/C=C/C1CCC(=O)[C@@H]1CCCCCCC(=O)O (mixture of isomers) ?
result: 0.113

query: Would you mind telling me what ED50 value was observed for CCCCC[C@](C)(O)/C=C/C1CCC(=O)[C@@H]1CCCCOCC(=O)OCC (mixture of isomers) ?
result: 0.618

----------
Tested on: Cavia porcellus
Assay: Bronchodilatory activity in iv dosed Hartley guinea pig assessed as inhibition of acetylcholine-induced spasm administered 3 to 4 times at 15 mins interval starting 2 mins post challenge
Format: functional
Here, each record is paired with measured log10(ED50) data.
All values: base-10 log of ED50 in mg/kg.

{"columns": ["molecule", "measuredOn", "log10(ED50)"],
 "data": [
  ["CCCCC(C)(C)[C@H](O)/C=C/C1CCC(=O)[C@@H]1CCCCOCC(=O)OCC (mixture of isomers)", "Cavia porcellus", -1.01],
  ["CCCCC(C)[C@H](O)/C=C/C1CCC(=O)[C@@H]1C/C=C\\CCCC(=O)O (mixture of isomers)", "Cavia porcellus", -2.79],
  ["CCCCC(C)(C)[C@@H](O)/C=C/C1CCC(=O)[C@@H]1CCCCOCC(=O)O (mixture of isomers)", "Cavia porcellus", -0.25],
  ["CCCCC[C@](C)(O)/C=C/C1CCC(=O)[C@@H]1CCCCOCC(=O)O (mixture of isomers)", "Cavia porcellus", -1.13],
  ["CCCCC(C)(C)[C@H](O)/C=C/C1CCC(=O)[C@@H]1CCCCCCC(=O)O (mixture of isomers)", "Cavia porcellus", -1.37],
  ["CCCCC(C)(C)[C@H](O)/C=C/C1CCC(=O)[C@@H]1CCCCOCC(=O)O (mixture of isomers)", "Cavia porcellus", -0.26],
  ["CCCCC(C)(C)[C@@H](O)/C=C/C1CCC(=O)[C@@H]1CCCCCCC(=O)O (mixture of isomers)", "Cavia porcellus", -0.87],
  ["CCCCC(C)[C@@H](O)/C=C/C1CCC(=O)[C@@H]1CCCCCCC(=O)OCC (mixture of isomers)", "Cavia porcellus", -0.40]
]}

Proceed to the following item.
query: Would you mind telling me what log10(ED50) value was observed for CCCCC(C)[C@@H](O)/C=C/C1CCC(=O)[C@@H]1CCCCCCC(=O)O (mixture of isomers) ?
result: -2.00

----------
Tested on: Cavia porcellus
Assay: Bronchodilatory activity in iv dosed Hartley guinea pig assessed as inhibition of acetylcholine-induced spasm administered 3 to 4 times at 15 mins interval starting 2 mins post challenge
Format: functional
Here, each record is paired with measured ED50 data.

Example compounds with recorded ED50:
{"columns": ["compound", "measuredOn", "ED50"],
 "data": [
  ["CCCCC(C)[C@@H](O)/C=C/C1CCC(=O)[C@@H]1C/C=C\\CCCC(=O)OCC (mixture of isomers)", "Cavia porcellus", "> 0.32 mg/kg"],
  ["CCCCC(C)[C@H](O)/C=C/C1CCC(=O)[C@@H]1CCCCCCC(=O)O (mixture of isomers)", "Cavia porcellus", "> 0.32 mg/kg"]
]}

query: Would you mind telling me what ED50 value was observed for CCCCC[C@H](O)/C=C/C1CCC(=O)[C@@H]1CCCCCCC(=O)O (mixture of isomers) ?
result: > 0.032 mg/kg
